Each record here notes measured Velvetleaf plant response rating.
# Test system: velvetleaf
# TEST_NAME: Test C pre-/postemergence herbicide test
# Type: in vivo, Abutilon theophrasti
# CONDITION_LABEL: Preemergence, 500 g ai/ha; scale 0 to 100, 0 no effect, 100 complete control
# Description: […]

STRUCTURE_SMILES_STRING	Velvetleaf plant response rating
CCc1nc(C(C)(C)C)sc1C(=O)Nc1cccc(C(=O)N(CC)CC)c1	100
CCN(CC)C(=O)c1ccnc(NC(=O)c2cc(C(C)(C)C)nn2CC)c1	100
C#CCNC(=O)c1cccc(NC(=O)c2cc(C(C)(C)C)nn2CC)n1	90
CCN1CCc2c(NC(=O)c3cc(C(C)(C)C)nn3CC)cccc2C1=O	100
CCNC(=O)c1ccc(F)c(NC(=O)c2cn(C(C)(C)C)nc2CC)c1	100
CCN(CC)C(=O)c1cccc(NC(=O)c2sc(C(C)(C)C)nc2C)c1	85

* * *

List of Plant response rating, Bermudagrass values.
# Tested on: bermudagrass
# TEST_NAME: Test C pre-/postemergence herbicide test
# Assay type: in vivo, Cynodon dactylon
# CONDITION_LABEL: 62 g ai/ha; preemergence; scale 0 to 100, 0 no effect, 100 complete control

COMPOUND	TESTED_SYSTEM	Plant response rating, Bermudagrass
C=CCNC(=O)c1cccc(NC(=O)c2nn(C(C)C)nc2CC)c1 [Compound 382]	bermudagrass	60
CCN1N=C(C(C)(C)C)CC1C(=O)Nc1cc(C(=O)N2CC=CC2)ccc1F (racemic) [Compound 310]	bermudagrass	50
CCNC(=S)c1cccc(NC(=O)c2nn(C(C)(C)C)nc2C)c1 [Compound 420]	bermudagrass	100
Cc1nn(C(C)(C)C)nc1C(=O)Nc1cccc(C(=S)N(C)C)c1 [Compound 419]	bermudagrass	100
CCc1nn(C(C)C)nc1C(=O)Nc1cccc(C(=O)N2CCCCC2)c1 [Compound 385]	bermudagrass	55
C=CCNC(=O)c1cccc(NC(=O)c2cc(C(C)(C)C)nn2C)n1 [Compound 318]	bermudagrass	10
CCNC(=O)c1ccc(F)c(NC(=O)C2CC(C(C)(C)C)=NN2CC)c1 (racemic) [Compound 269]	bermudagrass	100

* * *

# Test system: wild oat
# TEST_NAME: Test B postemergence herbicide test
# Format: in vivo, Avena fatua
# CONDITION_LABEL: postemergence, 125 g ai/ha; visual rating, scale 0 (no effect) to 100 (complete control)
OBSERVABLE: Oat, Wild plant response rating

COMPOUND	OBSERVABLE	RECORDED_RESULT
CC(C)(C)c1cc(C(=O)Nc2cccc(SC(F)(F)F)c2)n(CCF)n1 [Compound 132]	Oat, Wild plant response rating	20
CCn1nc(C(C)(C)C)cc1C(=O)Nc1cccc(C(=O)NCC(C)C)c1 [Compound 61]	Oat, Wild plant response rating	20
C#CCNC(=O)c1ccc(F)c(NC(=O)c2cc(C(C)(C)C)nn2CC)n1 [Compound 279]	Oat, Wild plant response rating	20
CCc1nc(C(C)(C)C)sc1C(=O)Nc1cccc(C(=O)NCCF)c1 [Compound 209]	Oat, Wild plant response rating	20
CON=C(C)c1cccc(NC(=O)c2cc(C(C)(C)C)nn2C)c1 [Compound 106]	Oat, Wild plant response rating	10
CCn1nc(C(C)(C)C)cc1C(=O)Nc1cc(C(=O)N(C)OC)ccc1F [Compound 244]	Oat, Wild plant response rating	30
CCN(CC)C(=O)c1cccc(NC(=O)c2sc(C(C)(C)C)nc2C)c1 [Compound 199]	Oat, Wild plant response rating	10
CCNC(=O)c1cccc(NC(=O)c2cc(C(C)(C)C)nn2CC)n1 [Compound 144]	Oat, Wild plant response rating	20
C=CCn1nc(C(C)(C)C)cc1C(=O)Nc1cccc(C(=O)NCC)c1 [Compound 56]	Oat, Wild plant response rating	20
CCN(CC)C(=O)c1cccc(NC(=O)c2nn(C(C)(C)C)cc2Cl)c1 [Compound 218]	Oat, Wild plant response rating	0
CCc1nc(C(C)(C)C)sc1C(=O)Nc1cccc(C(=O)N(C)CC)c1 [Compound 229]	Oat, Wild plant response rating	30
